assay notes: Half life in Swiss mouse at 10 mg/kg, po by LC-MS/MS analysis
Format: ADME, organism-based
condition set: in vivo
readout label: half-life

CC(C)(C)c1ccc(N2CCN(Cc3ccc([N+](=O)[O-])o3)CC2)cc1 | 4.04 h
CC(C)(C)OC(=O)N1CCN(Cc2ccc([N+](=O)[O-])o2)CC1 | 1.69 h
O=[N+]([O-])c1ccc(CN2CCN(S(=O)(=O)c3ccc(F)cc3)CC2)o1 | 1.46 h
O=[N+]([O-])c1ccc(CN2CCN(c3ccc(N4CCOCC4)cc3)CC2)o1 | 0.88 h

###

assay notes: Selectivity index, ratio of CC50 for human HepG2 cells to MIC90 for Mycobacterium tuberculosis H37Rv ATCC 27294
Format: toxicity, cell-based
condition set: read-out: Selectivity Index
readout label: selectivity ratio

N#Cc1cccc(N2CCN(Cc3ccc([N+](=O)[O-])o3)CC2)c1 | > 3200
COc1cccc(N2CCN(Cc3ccc([N+](=O)[O-])o3)CC2)c1 | > 1580
O=[N+]([O-])c1ccc(CN2CCN(S(=O)(=O)c3ccccc3)CC2)o1 | > 329
O=[N+]([O-])c1ccc(S(=O)(=O)N2CCN(Cc3ccc([N+](=O)[O-])o3)CC2)cc1 | > 333
O=[N+]([O-])c1ccc(CN2CCN(S(=O)(=O)c3ccc(F)cc3)CC2)o1 | > 675

###

Consider the following molecules and their measured Cmax readings.
assay notes: Cmax in Swiss mouse at 10 mg/kg, po by LC-MS/MS analysis
Format: ADME, organism-based
Set-up: dose 10 mg/kg, route oral
condition set: in vivo
readout label: Cmax (µM)

O=[N+]([O-])c1ccc(CN2CCN(c3ccc(N4CCOCC4)cc3)CC2)o1 | 5.34
O=[N+]([O-])c1ccc(CN2CCN(S(=O)(=O)c3ccc(F)cc3)CC2)o1 | 3.26
CC(C)(C)OC(=O)N1CCN(Cc2ccc([N+](=O)[O-])o2)CC1 | 3.81
CC(C)(C)c1ccc(N2CCN(Cc3ccc([N+](=O)[O-])o3)CC2)cc1 | 2.35

###

assay notes: Solubility of compound in water
Assay type: physicochemical
Lab note: compare solubility against 100 µM. Equal or greater, write TRUE. Smaller, write FALSE.

CC(C)(C)OC(=O)N1CCN(Cc2ccc([N+](=O)[O-])o2)CC1 | TRUE
O=[N+]([O-])c1ccc(CN2CCN(c3ccc(N4CCOCC4)cc3)CC2)o1 | FALSE
O=[N+]([O-])c1ccc(CN2CCN(S(=O)(=O)c3ccc(F)cc3)CC2)o1 | TRUE
CC(C)(C)c1ccc(N2CCN(Cc3ccc([N+](=O)[O-])o3)CC2)cc1 | TRUE
N#Cc1cccc(N2CCN(Cc3ccc([N+](=O)[O-])o3)CC2)c1 | TRUE

###

assay notes: Solubility of compound in simulated intestinal fluid
Assay type: ADME
readout label: solubility (µM)

CC(C)(C)OC(=O)N1CCN(Cc2ccc([N+](=O)[O-])o2)CC1 | 2570
N#Cc1cccc(N2CCN(Cc3ccc([N+](=O)[O-])o3)CC2)c1 | 32
CC(C)(C)c1ccc(N2CCN(Cc3ccc([N+](=O)[O-])o3)CC2)cc1 | 2.9
O=[N+]([O-])c1ccc(CN2CCN(S(=O)(=O)c3ccc(F)cc3)CC2)o1 | 13.5

###

assay notes: AUC(0 to t) in Swiss mouse at 10 mg/kg, po by LC-MS/MS analysis
Assay type: ADME, organism-based
condition set: in vivo
readout label: AUC(0-t) (µM·h)

O=[N+]([O-])c1ccc(CN2CCN(S(=O)(=O)c3ccc(F)cc3)CC2)o1 | 4.22
CC(C)(C)c1ccc(N2CCN(Cc3ccc([N+](=O)[O-])o3)CC2)cc1 | 2.99
CC(C)(C)OC(=O)N1CCN(Cc2ccc([N+](=O)[O-])o2)CC1 | 2.71
O=[N+]([O-])c1ccc(CN2CCN(c3ccc(N4CCOCC4)cc3)CC2)o1 | 4.51

###

assay notes: Solubility of compound in simulated gastric fluid
Format: ADME, Stomach
readout label: solubility (µM)

CC(C)(C)OC(=O)N1CCN(Cc2ccc([N+](=O)[O-])o2)CC1 | 2570
CC(C)(C)c1ccc(N2CCN(Cc3ccc([N+](=O)[O-])o3)CC2)cc1 | 1170
N#Cc1cccc(N2CCN(Cc3ccc([N+](=O)[O-])o3)CC2)c1 | 2560
O=[N+]([O-])c1ccc(CN2CCN(S(=O)(=O)c3ccc(F)cc3)CC2)o1 | 2170
